Assay: yeast display, Sf9 membrane polyspecificity reagent, FACS + sequencing; frameworks hold sequencing errors
assayReadout: polyreactivity (PSR sort gate)

// known answers, use as guide
chainSequence: QVQLVESGGGLVQAGGSLRLSCAASGFTIGYYVMGWYRQAPGKDRELVAAITRSGSRTYYADSVKGRFTISRDNAKNTVYLQMNSLKPEETAVYYCAADYKTFLRSFDYWGQGTQVTVSS
polyreactivity (PSR sort gate): high polyreactivity

chainSequence: KVQLVESGGGLVQAGGSIRLSFAASGLIFLQYCMGWYRQAPGKERELVAAITTRGGRTYYADSVKGRFTISRDNPKNTVYLQMNSLKPEDTAVYYCAADSEQDNLRYYRWVWYYYWGQGPQVTVSS
polyreactivity (PSR sort gate): low polyreactivity

chainSequence: QVQLVESGGGLFQAGGSLRLSCAASGSISYYNAMGWYRQAPGKERELVATITDSGGSTYYADSVKGRFTISRDIAKNTVYLQMISLKPEDTAVYYCAVDFSEWYSIYDYWGQGTQVTVSS
polyreactivity (PSR sort gate): low polyreactivity

chainSequence: QVQLVESGGGLVQAGGSLRLSCAASGIIFGSYAMGWYRQAPGKERELVAAISTSGGSTYYADSVKGRFTISRDNAKNTVYLQMNSLKPEDTAVYYCNKAGVYRDSSRYNYWGQGTQVTVSS
polyreactivity (PSR sort gate): high polyreactivity

chainSequence: QVQLVESGGGLVQAGGSLRLSCAASGSTFRYNAMGWYRQAPGKERELVAAITSTGDSTYYADSVKGRFTISRDNAKNTVYLQMNSLKPEDTAVYYCAARSYASPGWRYEYWGQGTQVTVSS
polyreactivity (PSR sort gate): low polyreactivity

chainSequence: QVQLEESGGGLVQAGGSLRISCSASGFNFRYYTMGWYRQAPGKERELVAAITSRGGSTYYADSLKGRFTISRDIAKNTVYLQMNSLKPEDTAVYYCATTSWGYEYWGQGTEVTVSS
polyreactivity (PSR sort gate): high polyreactivity

polyreactivity (PSR sort gate) recorded for this sequence, "QVQLVESGGGLLQAGGSLRLSCAASGLTFSKNAMGWYRQATGKERELVATISYSSSRTNYADSVKGRFTISRDNAMNTVYLQMNFLKPEDTAVYYCAARVYKGWPTHYDYWGQGTQVTVSS" , is high polyreactivity

Value of polyreactivity (PSR sort gate) reported for the sequence "QVQLVESGGGLVPAGGSLRLSCAASGSTFAKYAMGWYRQAPGKERELVASIRLSGGSTYYADSVKGRFTISRDHAQNTVYLQMNSLKPEDTAVYYCNKQFATFYYGFHYYYWGQGTQVTVSS" is low polyreactivity

// polyreactivity (PSR sort gate) value for "QVQLVESGGGLVQAGGSLRLSCAASGSIFGYYAMGWYRQAPGKEREFVAAITSRVGRTHYADSVKGRFTISRDNAKNTVYLQMNSLKPEDTAVYYCAAEVRQYYRRGYYWGQGTQVTVSS" : high polyreactivity

The recorded polyreactivity (PSR sort gate) for "QVQLVESGGGLVQAGGSLRLSCAASGLIFRPYTMGWYRPAPGKERELVATISGSGASTNYADSVKGRFTISRDNAKNTVYLQMNSLKPEDTAVYYCKGRSYSRMYYWGQGTQVTVSS" is high polyreactivity

Briefly, polyreactivity (PSR sort gate) measured for "QVQLVESGGGLVQAGGSLRLSCAASGRIFARYAMGWYRQAPGKERELVAAITSRGGSTYYADSVKGRFTISRDNAKNTVYLQMNSLKPEDTAVYYCNADYYRRPYYYWGQGTQVTVSS" : high polyreactivity
